// provenance: the supplement of paper PMC10567573

Would you kindly list protein stability index for each of these variants?
B1: FAM46C (parent)
chain: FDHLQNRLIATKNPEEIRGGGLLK

variants of: B1; test: protein stability index of a GFP-peptide fusion (GPS, HEK-293T) (PSI 1-6); higher = more stable; details: c terminus: a fixed tail appended;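 note: lentivirally expressed fusions sorted by FACS into six bins by GFP to DsRed ratio, PSI derived from sequencing read proportions per bin multiplied by bin number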
Answers are plain numbers.

Would you please look over these solved cases?
G21T; 4.07
L8M; 3.99
E15D; 4.07
L22N; 4.57
N6P; 4.46
R18D; 4.42
R18T; 3.2
L4V; 3.54
H3N; 3.05
Q5N; 3.44

Items follow; give protein stability index for each.
1. R18F
2. E15W
3. L23N
4. E16C
5. G20L
6. N6F

*A*
1. 2.98
2. 2.63
3. 4.43
4. 2.85
5. 4.19
6. 2.38

Items follow; give protein stability index for each.
1. N6K
2. I9D
3. G20M

*A*
1: 3.81; 2: 3.5; 3: 2.76

Items follow; give protein stability index for each.
1. I9T
2. R7V
3. E16F
4. D2H
5. K24T
6. L22T
7. D2P

*A*
4.4
3.43
2.44
3.1
3.45
4.34
4.23

Items follow; give protein stability index for each.
1. E16Q
2. G21A

*A*
1. 3.58
2. 3.69
